The reported measurements were obtained from ChEMBL document CHEMBL2390879.

Biological target: Amine oxidase [flavin-containing] A (Homo sapiens, UniProt P21397)
Sequence (P21397 whole entry): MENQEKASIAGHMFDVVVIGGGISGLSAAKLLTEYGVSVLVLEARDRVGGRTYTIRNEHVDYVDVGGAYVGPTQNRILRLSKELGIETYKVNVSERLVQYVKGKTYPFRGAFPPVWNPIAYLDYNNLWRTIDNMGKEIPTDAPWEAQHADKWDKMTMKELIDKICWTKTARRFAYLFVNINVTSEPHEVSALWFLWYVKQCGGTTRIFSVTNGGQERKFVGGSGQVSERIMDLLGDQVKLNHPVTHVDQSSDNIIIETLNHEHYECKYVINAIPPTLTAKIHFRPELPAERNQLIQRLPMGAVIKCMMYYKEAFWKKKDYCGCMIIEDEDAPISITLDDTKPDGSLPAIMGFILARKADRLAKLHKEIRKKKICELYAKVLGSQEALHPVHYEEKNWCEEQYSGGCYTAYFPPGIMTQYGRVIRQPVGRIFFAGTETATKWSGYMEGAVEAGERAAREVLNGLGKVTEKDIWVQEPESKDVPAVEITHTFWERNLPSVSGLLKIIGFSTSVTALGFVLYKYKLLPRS
Assay: Inhibition of human recombinant monoamine oxidase-A assessed as kynuramine conversion to […] after 20 mins by fluorescence spectrophotometric analysis
quantity.measured: log10 IC50 (log10 of the value in nM)
Parameter value (number): base-10 log of IC50 in nM.

Example results:
>>> print(df.to_string())
                         compound_string  data_value
0            O=C1OCc2ccc(NCc3ccccc3)cc21        4.78
1       Cc1ccc(COc2ccc3c(c2)C(=O)OC3)cc1        3.03
2        O=C1OCc2ccc(OCc3ccc(Br)cc3)cc21        2.36
3      Cc1ccc(CCOc2ccc3c(c2)C(=O)OC3)cc1        3.87
4  O=C1OCc2ccc(OCc3ccc(C(F)(F)F)cc3)cc21        2.48
5          O=C1OCc2ccc(OCCOc3ccccc3)cc21        3.28

Now look at this entry.
Query: // lookup log10 IC50 | system=Amine oxidase [flavin-containing] A (Homo sapiens, UniProt P21397) | key= `O=C1OCc2ccc(OCc3ccc(Cl)cc3)cc21`
Response: 2.24
